Values were extracted from the supplement of paper PMC6089552.

# Tested on: A673/TR/shEF
# Assay: cell viability (LOESS-normalised, relative to median of negative controls) (log2 ratio); higher = more viable cells (less compound effect), active = hit call of the paper (over 3 MAD below the median)
# Condition parameters: 0.25 µM; library screen: screen1; EWS-FLI1 expression: high (no doxycycline); treatment time: 72 h
Hit rate of the full screen: of about 3,200 compounds, about 300 (9.4%) showed activity. The entries come from a sample that favours actives as a whole.
Below, each entry is listed with its recorded cell viability (log2).

>  <Compound>
CC(C)CCC[C@@H](C)[C@H]1CC[C@H]2[C@@H]3CC[C@@H]4C[C@H](O)CC[C@]4(C)[C@H]3CC[C@]12C

>  <Target or system>
A673/TR/shEF

>  <cell viability (log2)>
0.108 (inactive)

$$$$
>  <Compound>
CO/N=C(\C(=O)N[C@@H]1C(=O)N2C(C(=O)O)=C(CSc3nc(=O)c(=O)[nH]n3C)CS[C@H]12)c1csc(N)n1

>  <Target or system>
A673/TR/shEF

>  <cell viability (log2)>
0.112 (inactive)

$$$$
>  <Compound>
COc1ccc(C(=O)c2ccc(O)cc2O)c(O)c1

>  <Target or system>
A673/TR/shEF

>  <cell viability (log2)>
0.0224 (inactive)

$$$$
>  <Compound>
C[C@@H]1O[C@H](OC[C@H]2O[C@@H](Oc3c(-c4ccc(O)c(O)c4)oc4cc(O)cc(O)c4c3=O)[C@H](O)[C@@H](O)[C@@H]2O)[C@H](O)[C@H](O)[C@H]1O

>  <Target or system>
A673/TR/shEF

>  <cell viability (log2)>
-0.0111 (inactive)

$$$$

Which cell viability (log2) reading was recorded for the compound "Cc1ccc(NC(=O)c2cccc(N(C)C)c2)cc1NC(=O)c1ccc(O)cc1" ?
0.277

Which cell viability (log2) reading was recorded for the compound "CC(C)c1c(O)ccc2c1CC[C@H]1[C@@](C)(CO)CCC[C@]21C" ?
0.0632 (inactive)

Which cell viability (log2) reading was recorded for the compound CC(=O)O[C@H]1CC[C@]2(C)C3=CC(=O)[C@@]4(C)C(C[C@@H]5OC6(OCC(C)CC6Br)[C@@H](C)[C@@H]54)C3CC[C@H]2C1 (stereo partly drawn) ?
0.0329 (inactive)
